Ref: PubChem BioAssay (NCI)

Test system: HOP-62 NSCLC
Test: NCI-60 one-dose screen, 48 h
Details: 10 µM unless noted
About 83,000 compounds went through this panel and 20% of them were active in at least one assay; those are over-represented in the sample as a whole. Calls of active or inactive are those of the source. How the source made its calls: active means growth percent below 10; inactive means the rest.
Labels: Yes for active, No for inactive

- Fc1ccc(COc2ccc(Nc3ncnc4sc5c(c34)CCCC5)cc2)cc1: No
- CC1=NN(c2ccc(Cl)cc2)CC1(C)N=O (stereo unspecified): No
- Clc1ccc(-c2cn3ccsc3n2)c(Cl)c1Cl: No
- CC/C(Cc1ccccc1)=C(\c1ccc(OCCN2CCCCCC2)cc1)c1ccc(OC(=O)NCc2ccccc2)cc1: No
- COc1ccc2c(c1)c(-c1cc(-c3cn(C)c4ccc(OC)cc34)on1)cn2C: No
- CCNc1nc(-c2ccc(F)cc2)c(C#N)c(=O)n1C: No
- O=C(CCCCCCN1CC(=O)N2[C@@H](C3CCCCC3)c3[nH]c4ccccc4c3C[C@H]2C1=O)NO: No
- Cn1cc(-c2nn3cc(-c4ccccc4)nc3s2)c2ccccc21: No
- COc1ccc(/C=C/C(=O)c2ccc(NC(=O)CSc3nnc(-c4cc(-c5ccccc5)nc5ccccc45)n3-c3ccccc3)cc2)cc1: No
- Cc1cscc(C)c1=S: No
- Cc1[nH]c(/C=C/C(=O)c2ccc(C(F)(F)F)c(F)c2)c(C)c1C(=O)NCC(C)C: No
- CCOC(=O)c1c(C)nc2ccccc2c1/C=C/c1ccc(OC)cc1: No
- Cc1ccc(C(=O)c2ccc(CC(=O)N/N=C/c3ccc(O)cc3O)n2C)cc1: No
- O=C(/C=C/c1ccc(Br)cc1)c1ccc(-n2cc(CN3CCN(c4cc5c(cc4F)c(=O)c(C(=O)O)cn5C4CC4)CC3)nn2)cc1: No
- Cc1cccc(NC(=O)CSc2nc3ccc([N+](=O)[O-])cc3[nH]2)c1: No
- CN1CCN(c2ccc(NC(=O)c3cncnc3Nc3ccc4c(ccn4Cc4cccc(F)c4)c3)cc2)CC1: Yes
- O=C1CCCc2nc3sc4c(=O)n(-c5ccccc5Cl)nnc4c3cc21: No
- O=C(CBr)CN1C(=O)c2ccccc2C1=O: No
- CCOC(=O)C1=C(c2ccccc2)N=c2s/c(=C/c3ccc(Br)cc3)c(=O)n2C1c1ccc(O)cc1 (stereo unspecified): No
- C/C(=C(/c1ccc(Cl)cc1)c1ccc(OCCCN(C)C)cc1)c1ccc(Cl)cc1: No
- COc1cc(-c2nc(SCCC(C)C)nc(N3CCOCC3)c2C#N)cc(OC)c1OC: No
- CO[C@H](C(=O)[C@@H](O)[C@@H](C)O)[C@@H]1Cc2cc3cc(O[C@H]4C[C@@H](O[C@H]5C[C@@H](O)[C@H](O)C(C)O5)[C@H](O)C(C)O4)c(C)c(O)c3c(O)c2C(=O)[C@H]1O[C@H]1C[C@@H](O[C@H]2C[C@@H](O[C@H]3C[C@@H](OC)[C@H](O)C(C)O3)[C@@H](O)C(C)O2)C(O)(O)C(C)O1 (stereo partly specified): Yes
- CC(C)c1ccc(C(=O)Nc2sc3cc(O)ccc3c2C#N)cc1: No
- COc1ccc(-c2cc(C(=O)N3N=C(c4ccc(N)cc4)CC3c3ccccc3)c3ccccc3n2)cc1 (stereo unspecified): No
- COc1ccc2nc(Cl)c(/C=C/C(=O)c3ccc(NC(=O)CSc4nnc(-c5ccc(Cl)c(Cl)c5)n4-c4ccccc4)cc3)cc2c1: No
- COc1ccc(Cn2cc(C(=O)N=Nc3c(O)[nH]c4c(Cl)cccc34)nn2)cc1: No
- Cc1ccc(-c2csc(NC(=O)N3CCN(c4cc5c(cc4F)c(=O)c(C(=O)O)cn5C4CC4)CC3)n2)cc1: No
- Cc1ccc(S(=O)(=O)n2cc(C3C(Cl)C(=O)N3c3ccc(N4CCOCC4=O)cc3)c3ccccc32)cc1 (stereo unspecified): No
- COc1cccc(/C=C/C(=O)c2cc3c(N)c(C(=O)Nc4ccccc4C)sc3nc2C)c1: No
- O=C(/C=C/C12c3ccccc3C(c3ccccc31)C1C(=O)NC(=O)C12)c1ccccn1 (stereo unspecified): Yes
- COc1cc2cc(Oc3ccc(NC(=O)Nc4ccccc4)cc3)c(C)nc2cc1OCCN1CCCCC1: No
- O=C(c1ccc(Cl)cc1Cl)N1c2ccccc2Sc2ccccc21: No
- COC(=O)C1=C(C(=O)Nc2cccnc2)C2OC1(C(Cc1ccccc1)Oc1ccccc1)C1OC21 (stereo unspecified): No
- C=C1C(=O)O[C@H]2[C@H]1CC/C(COC(=O)NCc1ccc(Cn3c(=O)sn(-c4ccc(OC)cc4)c3=O)cc1)=C\CC[C@@]1(C)O[C@@H]21: No
- CCOC(=O)c1c(NC(=O)c2ccc(OC)cc2)sc2c(CN(C)C)c(O)ccc12: No
- O=C(CCCCCCCCC(=O)N/N=C\c1cc(Cl)ccc1O)N/N=C\c1cc(Cl)ccc1O: No

====

System: NCI-H23 lung
Experiment: NCI-60 one-dose screen, 48 h (100 = growth as untreated, 0 = no growth, -100 = all killed)
Details: 10 µM unless noted
Compounds without any hit were thinned out: in the full panel of roughly 83,000, 20% have a hit.
Consider the cut-off 80%. If the recorded growth is strictly smaller, the label is TRUE; if not, the label is FALSE.

- O=C(Cn1cc(CN2C(=O)c3ccccc3S2(=O)=O)nn1)Nc1cccc(Cl)c1: FALSE
- COc1ccc(C2CC(c3ccc(Nc4nc(Nc5ccc(F)cc5)nc(Nc5ccc(F)cc5)n4)cc3)=NN2C(C)=O)cc1 (stereo not drawn): TRUE
- N#CC(C#N)N=Nc1ccc(Cl)cc1Cl: FALSE
- COc1cc2oc(-c3cccc(NC(=O)c4ccc5c(c4)OCO5)c3)cc(=O)c2c(OC)c1OC: TRUE
- C=CC(=O)NCCOc1cccc(Nc2cc(NCCCNC(=O)C3CCC3)c(Br)cn2)c1: TRUE
- O=C(Nc1ccccc1)c1sc(-c2ccccc2)cc1O: FALSE
- O=C(CSc1nc2ccc([N+](=O)[O-])cc2[nH]1)Nc1cccc([N+](=O)[O-])c1: TRUE
- CCCCCCC(CCCC)COC(=O)c1ccc(Cl)cc1 (stereo not drawn): FALSE
- O=C(Nc1nc(C(=O)N2CCN(C(c3ccccc3)c3ccccc3)CC2)cs1)c1ccc(NC2CCCCC2)c([N+](=O)[O-])c1: TRUE
- CN1CCN(Cc2ccc(NC(=O)c3cncc(C#Cc4cnn5ccccc45)c3)cc2C(F)(F)F)CC1: TRUE
- CC(O)c1ncc(/C=C2\SC(=S)N(Cc3ccccc3)C2=O)s1 (stereo not drawn): FALSE
- CCCCCCCCCCCCCCCCCCOc1ccccc1CC(=O)NCC[N+]1(C)CCOCC1: TRUE
- CCOC(=O)Nc1nc2ccc(SCC(C)C)cc2s1: TRUE

====

In this section we review reported growth values for a set of compounds.
System: ACHN renal
Assay: NCI-60 one-dose screen, 48 h (100 = growth as untreated, 0 = no growth, -100 = all killed)
Settings: 10 µM unless noted
Compounds without any hit were thinned out: in the full panel of roughly 83,000, 20% have a hit.
property: growth (%)

- CC(=O)N(Cc1ccccc1)c1nc2ccc(O)c(CN(C)C)c2s1: 96.8
- C=CC(C)(O)CC/C=C(\CO)C(=O)OC1C(C)OC(O[C@](C)(C=C)CC/C=C(\CO)C(=O)O[C@H]2C[C@@]3(C(=O)OC4OC(CO)C(O)C(O)C4OC4OC(C)C(OC5OC(CO)C(O)C5O)C(OC5OC(CO)C(O)C(O)C5O)C4O)C(CC2(C)C)C2=CCC4[C@@]5(C)CC[C@H](OC6OC(COC7OC(C)C(O)C(O)C7OC7OCC(O)C(O)C7O)C(O)C(O)C6NC(C)=O)C(C)(C)C5CC[C@@]4(C)[C@]2(C)C[C@H]3O)C(O)C1O (stereo not given in full): -87.7
- CC(C)C[C@@H](C(=O)N[C@H](C(=O)OC1CCCC1)c1ccccc1)[C@H](O)C(=O)NO: 85.9
- CC(C)c1ccc(C(=O)Nc2sc3cc(O)ccc3c2C#N)cc1: 47.3
- C=C1C(=O)O[C@H]2[C@H]1CC/C(COC(=O)c1cc3cc(F)ccc3[nH]1)=C\CC[C@@]1(C)O[C@@H]21: -88.5

====

Test system: OVCAR-8 ovarian
Experiment: NCI-60 one-dose screen, 48 h
Conditions: 10 µM unless noted
This is part of a sample that, as a whole, favours compounds with a hit. Of some 83,000 tested, about 20% had one in any assay. The source made the active and inactive calls. How the source made its calls: active means growth percent below 10; inactive means the rest.
Possible outcomes: active, inactive

- Nc1nc(C(=O)N/N=C/c2ccc(N3CCOCC3)cc2)nn1-c1ccc(S(N)(=O)=O)cc1: inactive
- Cc1ccc(-c2nc(C(Cl)Cl)nc3cc(C)nn23)cc1: inactive
- CC(C)CN1CC(C(=O)Nc2ccc3c(c2)-c2ccccc2C3)CC1=O (stereo not given): inactive
- COc1ccc(C2=NN(C(=O)c3cc(OC)c(OC)c(OC)c3)C(c3ccc(N(C)C)cc3)C2)cc1 (stereo not given): inactive
- CCOC(=O)c1c(C)nc2ccccc2c1/C=C/c1ccc(OC)cc1: inactive
- C/C(=N\O)C(=O)NCCCCCC(=O)Nc1ccccc1: inactive
- COc1ccc(/C=C/C(=O)c2ccc(NC(=O)CSc3nnc(-c4cc(-c5ccccc5)nc5ccccc45)n3-c3ccccc3)cc2)cc1: inactive
- O=C(N/N=C/c1ccc(O)cc1O)c1ccc(Nc2ccnc(C(F)(F)F)c2)cc1: inactive
- COc1ccccc1-n1c(-c2cc(O)ccc2C)cn2c3c(=O)[nH]c(=O)n(C)c3nc12: inactive
- O=C(NCc1ccc2c(c1)OCO2)NCC1CCCC(CNC(=O)NCc2ccc3c(c2)OCO3)C1 (stereo not given): inactive
- CCOC(=O)C1=C(C)N=C2SC=C(c3ccccc3)N2[C@H]1c1cn[nH]c1-c1ccc(Cl)cc1: inactive
- CC(O)c1ncc(/C=C2\SC(=S)N(Cc3ccccc3)C2=O)s1 (stereo not given): inactive
- CCOC(=O)c1c2c(n3c1NCC3)-c1ccccc1C2=O: inactive
- CCN=C1C=CC(=C(c2ccc(N(C)C)cc2)c2ccc(N(C)C)cc2)c2ccccc21: active
- COc1ccc(C2=Nc3c(N)ncnc3NC(c3cccc(Nc4ccnc5cc(C(F)(F)F)ccc45)c3)C2)cc1 (stereo not given): inactive
- CC(C)c1ccc(NC(=O)Nc2ccc(NC(=O)c3ccccc3N)cc2)cc1: inactive
- O=C(c1ccc(F)c(Cl)c1)N1c2ccccc2Sc2ccccc21: inactive
- O=C(CBr)CN1C(=O)c2ccccc2C1=O: inactive
- CCCCCCCCCCCCCCCCOC(=O)c1c(C)[nH]c(/C=C2\N=C(c3ccc[nH]3)C=C2OC)c1C: inactive
- O=C1CCC(C(=O)NN(c2ccccc2)c2ccccc2)N1 (stereo not given): inactive
